- Experiment: NCI Yeast Anticancer Drug Screen. Data for the rad50 strain (AID 155)
- Condition: S. cerevisiae rad50 strain growth inhibition; at 33.0 µM
Compounds without any hit were thinned out: in the full panel of roughly 79,000, 15% have a hit. The source made the active and inactive calls. Rule as the data show it: active = growth inhibition above about 70%; inactive = the rest.
Respond only with the outcome that fits, drawn from true (active), false (inactive)

# Compound, Class assignment
data = [
    ("O=[N+]([O-])c1cc(S(=O)(=O)F)ccc1Cl", "true"),
    ("c1ccc(N=c2nc(N3CCOCC3)ss2)cc1", "true"),
    ("O=C1c2ccccc2C(=O)C(Cl)C1Cl (centres undefined)", "true"),
    ("COc1cccc2c1C(=O)c1c(O)c3c(c(O)c1C2=O)C[C@@](O)(/C(C)=N\\O)C[C@@H]3OC1CC(N)C(O)C(C)O1 (some centres undefined)", "true"),
    ("Nc1nc(N)c2c(Cl)c(CNc3ccc(C(=O)NC(CC(=O)O)C(=O)O)cc3)ccc2n1 (centres undefined)", "false"),
]

Q: Test call, this compound: C/C(CCl)=N/NC1=NC(c2ccccc2Cl)P(=O)(NCCCNP2(=O)SC(N/N=C(/C)CCl)=NC2c2ccccc2Cl)S1 (centres undefined)
Result: false

Q: Just curious, what result did CCOP(=O)(CC(C)P(=O)(OCC)OCC)OCC.C[CH2][Sn]([Cl])([Cl])[CH2]C (centres undefined) get here?
Result: true

Q: Call for entry OC1CCCC2CCC[N-]C12.OC1CCCC2CCC[N-]C12.[O]=[V][OH] (centres undefined) :
Result: true

Q: What is the recorded call for this compound in the test? O=C(O)C1C2c3ccccc3C(c3ccccc32)C1C(=O)O (centres undefined)
Result: false

These entries and their values trace back to PubChem BioAssay (NCI).
